Endpoint Name: melting point

Below, each entry is followed by its recorded melting point result.
CSC(=S)Nc1ccc2c(c1)OCO2
114 to 115 °C
CCc1nc(Cl)c2c(-c3ccc([N+](=O)[O-])o3)nn(C)c2n1
165 °C
O=c1cc(N2CCOCC2)oc2cc(OCc3ccccc3)ccc12
170 to 172 °C
Cc1noc(NS(=O)(=O)c2ccccc2-c2ccc(-c3ncco3)cc2O)c1C
111 to 115 °C
COc1ccc(-n2cc(C(=O)O)c3nc4c(C)cccc4cc3c2=O)cc1OC
297 to 298 °C

What measured melting point goes with `CCOC(=O)c1cnn(-c2ccc(OCC(C)C)c(C#N)c2)c1` ?
138 to 139 °C

One more compound: `CC(C)(C)NC(=O)c1ncccc1CCc1ccc(F)cc1`
59 to 61 °C

Now try CC(c1ccsc1)N(O)C(N)=O (stereo not given) .
138 to 140 °C

Likewise for `Cc1ccc(NC(=O)c2c(Cl)cccc2Cl)c2nccc(Cl)c12` ?
258 to 260 °C

Do the same for `NC(=O)CCn1c2ccc(O)cc2c2c3c(c(-c4c(Cl)cccc4Cl)cc21)C(=O)NC3=O` please
327 to 329 °C

----------
Recorded measurements of melting point, one per entry

Some entries whose results are on file:
COc1cc(C2CCCCC2)ccc1CCCC(=O)O
104 to 105 °C
COc1cn(-c2ccc(-n3cc(Cl)cn3)cc2F)nc(-c2ccnn2-c2ccccc2)c1=O
190 to 192 °C
CSC1(N)N=C(N(C)C)N=C(N)N1 (stereo not given)
207 to 212 °C
COc1cc([N+](=O)[O-])c2ncccc2c1OCC(F)(F)F
109 to 115 °C

// query melting point value for entry Nc1c(C#Cc2ccccc2)cnnc1C1CN2CCNC1CC2 (stereo not given)
182 to 183 °C

Same for `O=C(NCc1ccc(C(=O)C(F)(F)F)cc1)c1cccnc1Oc1cccnc1`
134 to 136 °C

# iterate: CC(N)C(=O)NC(CCC(=O)NC(CC=CCC(=O)O)C(=O)O)C(=O)O (stereo not given)
70 °C

What would you report for CC(C)(O)C1C(=O)N2C(C(=O)OCc3ccccc3)=C(Sc3ccccc3)CC12 (stereo not given) ?
133 to 136 °C

// next record COc1nc(N2C(=O)C3CCCCN3C2=O)c(F)cc1C#N (stereo not given)
159 to 170 °C

What about this molecule? `NC(=S)c1cc(Cl)cc2cc(Cl)cnc12`
226 °C

Follow-up item: `Cc1nnc2ccc(-c3ccsc3)nn12`
154 to 156 °C

Try this molecule too: `Cc1cc(C)c(C)c(OCC(=O)O)c1`
129 to 130 °C

Try this molecule next: `O=[N+]([O-])c1ccc(-c2cc(Br)sc2-c2ccc(F)cc2)cc1`
129 to 130 °C

Again, but for CN(C)CCOc1ccc2[nH]c(C(=O)N3CC(CCl)c4c3cc([N+](=O)[O-])c3cc(S(C)(=O)=O)ccc43)cc2c1 (stereo not given)
250 to 252 °C

Next up: `Nc1ccc(N2CCN(c3ccncc3)CC2)cc1`
204 to 208 °C

Same question, `Cc1ccc(S(=O)(=O)Nc2nc(C)c(C(=O)NCc3ccccc3)s2)cc1` this time
242 to 245 °C

Further, for CC(Oc1ccc2nc(NC(=O)NCCC3CCN(C(=O)OC(C)(C)C)CC3)sc2c1)c1c(Cl)ccc(F)c1Cl (stereo not given) ?
95 to 105 °C

Moving on to the next molecule: `CCC(CC)Nc1nc(Cc2cc(OC)c(OC)c(OC)c2)nc2sc(C#N)c(C)c12`
127 to 129 °C

Then what about the molecule COC(=O)C(Cc1ccc(-c2nc3ccc(OC)cc3n2C)cc1)N=[N+]=[N-] (stereo not given) ?
105 to 107 °C

Now consider COC12CC(C)(C)C(O)C(C=C1C)O2 (stereo not given) .
82.5 to 83.5 °C

----------
The following compounds are listed with their measured melting point values.

Use these answered entries as a reference point.
Cc1[nH]c(=O)c2c(ccc3nc(Nc4c(Cl)cccc4Cl)[nH]c32)c1C
> 300 °C
CCOC(=O)c1c(C2CC2)nn(CC)c1Cc1ccc(-c2ccccc2-c2nnn[nH]2)cc1
73 to 77 °C
CC(=O)NCc1ccc(CN2CCN(c3ccccc3)CC2)cc1
135 to 136 °C
Cc1nc(C)c(Cl)c(NCc2nccc(OCCOCCSCCn3c([N+](=O)[O-])cnc3C)c2C)n1
102 to 105 °C
CN1CCN(c2ccccc2CO)[C@@H]2c3ccccc3C[C@H]21 (relative stereo)
166 to 167 °C

What measured melting point goes with CC(CNC(=O)N(CCN(C)C(=O)OC(C)(C)C)CCC12CC3CC(CC(C3)C1)C2)Cc1ccncc1 (single isomer, unassigned; (+)) ?
123 to 124 °C

Try this compound too: `Cn1nc(C#N)c(Nc2ccc(Cl)cc2[N+](=O)[O-])n1`
166 to 168 °C

Also check `COc1ccc(-n2c(-c3ccccn3)nc(SC)c(C#N)c2=O)cc1`
246 to 253 °C

Same read-out for CC1CN(c2ccc(Cl)c(Cl)c2)N=C1NC=O (centres undefined) ?
150 to 152 °C

----------
Here the recorded melting point is given for each entry.

Consider the following illustrative entries.
Cc1nnc(-c2ccc3occ(-c4cc(F)ccc4F)c3c2)o1
143 to 144 °C
CC(=O)N1c2c(ccn3c(C)c(C)nc23)[C@@H](O)[C@H](O)[C@H]1c1ccccc1
260 to 261 °C
CC1(C)CON(Cc2ccc(N3C(=O)c4ccccc4C3=O)cc2Cl)C1=O
141 to 145 °C
N#Cc1nc2cc(Cl)c3cccnc3c2o1
214 to 215 °C
O=C(NNC(=O)c1ccc([N+](=O)[O-])cc1)c1ccccc1
254 to 256 °C
CCC(C)(C)c1cccc(C(=O)NN)c1O
156 to 157 °C

In the following, a different compound is considered.
For the compound shown here, `Cn1c(NCCCOc2cccc(CN3CCCCC3)c2)nc2ccccc21` , give the reported melting point.
153 to 154 °C

----------
Measured melting point by item

CSc1ccc(Oc2ccc(N)cc2)c(C)c1
162 °C

So what does the record say about melting point for `CCc1nc2c(C)cc(C)nc2n1Cc1ccc2c(c1)CCc1ccccc1N2Cc1ccccc1C#N` ?
133 to 135 °C

----------
Overview of recorded melting point for various compounds

Form field: reported melting point of `CN(C)C(=O)Cc1ccc2[nH]cc(CCN3C(=O)c4ccccc4C3=O)c2c1`
193 to 194 °C

And for `Cc1oc(C=Cc2cccc(C(F)(F)F)c2)nc1CC#N` ?
107 to 108 °C

And for `COc1c(O)cc(F)cc1-c1c(Cl)cccc1Cl` ?
65 to 67 °C

Let us now turn to `Cn1c(=O)cc(-c2cccc(Cl)c2)c2cccnc21`
168 to 170 °C

----------
Endpoint Name: melting point (°C)
The figure you give is taken to be in °C; do not add the unit.

Field: example entries. Status: answers known.
Cc1nc2c(o1)CCc1ccccc1C2=Cc1cccc(NS(C)(=O)=O)c1
185
CC1=C(C#N)C(c2ccccc2[N+](=O)[O-])C(C(=O)O)=C(C)N1 (stereo not given)
225
CCN(CC)c1ccc(Nc2ccnc(Nc3cc(OC)c(OC)c(OC)c3)n2)cc1
87

Now let's try a different one.
Which melting point is reported for this compound? `CS(=O)(=O)N=C(NCC(=O)O)Nc1ccc(C#N)cc1`
170

----------
A collection of compounds and their measured melting point

Solved entries (count: 3):
CC(C)N(C(=O)c1ccc(F)cc1)C1CCN(Cc2ccccc2)CC1
98 °C
CN(C)CCNc1cc(Oc2ccc3c(C(=O)Nc4cc(C(C)(C)C)nn4-c4ccc(F)cc4)cccc3c2)ncn1
153 to 155 °C
CS(=O)(=O)c1ccc(-c2nn3c(-c4ccccc4)c(-c4ccccc4)oc3c2-c2ccc(F)cc2)cc1
228 to 229 °C

Here's the next entry for you.
Can you share its melting point? I mean this compound: `CC(C)(C)c1cc(CCc2ccccc2NC(=O)N2CCc3ccccc3C2)cc(C(C)(C)C)c1O`
148 to 150 °C

----------
Endpoint Name: melting point

Some solved entries appear below for comparison.
Fc1cccc(Cl)c1-c1cc(Cl)n(-c2ccc(COc3ncc(C(F)(F)F)cc3Cl)cc2)n1
120 to 121 °C
CSc1nc(OCCN2CCCC2=O)c(C#N)c(N2CCc3ccccc3CC2)n1
126 to 128 °C

// query melting point value for entry O=C(OCc1ccccc1)C1Cc2sccc2C(=O)N1Cc1ccccc1 (stereo not given)
72 °C

Param item: CCCC1=C(C(=O)OCC)C(c2cc(OC)ccc2OC)c2c[nH]nc2N1 (stereo not given)
169 to 170 °C

// next record `COc1ccc2c(c1)CCC(CN1CCC3(CC1)C(=O)NCN3c1ccccc1)=C2`
182 to 193 °C
